Values from PubChem BioAssay (NCI)

System: SF-295 CNS
Assay: NCI tumour cell line growth inhibition, 48 h
TGI for assorted molecules

Observe how each entry below is paired with its result.
COC(=O)C(=O)C(C#N)c1nc2ccccc2s1 (stereo unspecified) : > 100 µM
CC(C)(C)CC(C)(C)c1ccc(OCCO)cc1 : 8.56 µg/mL
COc1ccc(/C=C/C(=O)c2cc(OC)cc(OC)c2)cc1 : 7.23 µM
CN1CCN(c2cc3[nH]c4cc(O)cc(O)c4c(=O)c3cc2N)CC1 : > 100 µM
O=C1c2ccccc2C(=O)N1/N=C1/SC(=Nc2ccccc2)C(=Nc2ccccc2)N1c1ccccc1 : > 100 µM

Now for a further molecule.
Could you tell me which TGI is on file for COc1cc(/C=C2\CC3C4CC=C5CC(OC(C)=O)CC[C@]5(C)C4CC[C@]3(C)C2=O)ccc1OCCN1CCCC1 (stereo partly specified) ? 11.8 µM

====

Test system: SF-539 CNS
Assay: NCI tumour cell line growth inhibition, 48 h; in the data active means GI50 below about 0.43 µM; inactive means the rest
Respond only with the outcome that fits, drawn from true (1) for active, false (0) for inactive

Cn1cc(C2=C(c3ccsc3)C(=O)NC2=O)c2ccccc21 : false (0)
COc1cc2c(c3oc(-c4ccc(O)cc4)c(O)c(=O)c13)CCC(C)(C)O2 : true (1)
CC1=C(CCCOC(=O)[C@H](N)CC(C)C)C2=C(C)C3(CC3)[C@@](C)(O)C(=O)C2=C1 : false (0)

Hi, sorry to bother you, what did the test record for COc1cc(/C=C2\CC3C4CC=C5CC(OC(C)=O)CC[C@]5(C)C4CC[C@]3(C)C2=O)ccc1OCCN1CCCC1 (stereo not given in full) ? false (0)

Hi, sorry to bother you, what did the test record for Cc1cccc2cc(/C=C/C(=O)/C=C/c3ccc(Cl)cc3)c(=O)[nH]c12 ? false (0)

====

Tested on: U251 CNS
Test: NCI tumour cell line growth inhibition, 48 h
TGI for assorted compounds

Observe how each entry below is paired with its result.
C=C1c2nc3ccccc3n2C=C(c2ccc(OC)cc2)N1c1ccc(OCCN2CCCCC2)cc1 : > 91.3 µM
O=C1c2ccccc2-c2nnc3c(c21)Cc1ccccc1C3 : > 10 µM
CCCCCCCCCCCCCCCCOCC(COP(=O)(O)OCC1OC(n2cc(CC)c(=O)[nH]c2=O)CC1O)OC(=O)CCCCCCCCCCCCCCC (stereo not given) : > 100 µM
CC1(C)CNC(=O)C2(CCCO2)CNC(C)(C)CNC(=O)C2(CCCO2)CN1 (stereo not given) : > 10 µM
COc1cccc2c1nc(C(F)F)n2-c1nc(-c2ccc(NS(=O)(=O)CCN(C)C)cc2)nc(N2CCOCC2)n1 : 5.09 µM
O=C(CCC(=O)c1ccsc1)c1ccsc1 : > 100 µM
O=C1C(Cl)C(c2cccc([N+](=O)[O-])c2)N1n1cnc2ccccc2c1=O (stereo not given) : > 100 µM
C=CCC1(O)c2ccccc2C(=O)c2c(OCC(=O)OCC)ccc(OCC(=O)OCC)c21 (stereo not given) : > 100 µM
N#CC(C#N)=c1c(=O)c2c3ccccc3cc3cccc1c32 : > 100 µM
CN1C(=O)C(c2c[nH]c3ccccc23)=C(c2c[nH]c3ccccc23)C1=O : > 25 µM

Could you tell me which TGI is on file for O=C(CNc1ccccc1[N+](=O)[O-])Nn1cnc2ccc(S(=O)(=O)Nc3ccccc3[N+](=O)[O-])cc2c1=O ? > 100 µM

Could you tell me which TGI is on file for CC(=O)CCC#Cc1ccccc1C(=O)C(C)=[N+]=[N-] ? > 100 µM

Could you tell me which TGI is on file for CC1CCCCCC(=O)c2c(O)cc(O)cc2CC(=O)O1 (stereo not given) ? > 100 µM

Could you tell me which TGI is on file for COC(=O)c1c2c(c(C)[n+]([O-])c1C)C(=O)C(NCc1ccc(OC)cc1)=CC2=O ? 8.82 µM
